assay: PAMPA, parallel artificial membrane permeability assay; assay type: in vitro ADME; conditions: PAMPA; criterion >40; read-out: PAMPA (>40) Pe

GIVEN SMILES: CC(=O)c1cccc(N(CC(=O)Nc2ccccc2Oc2ccccc2)S(C)(=O)=O)c1
Papp [×10⁻⁶ cm/s]: 66.2
--
GIVEN SMILES: CC(=O)c1cccc(N(CC(=O)Nc2ccccc2Sc2ccccc2)S(C)(=O)=O)c1
Papp [×10⁻⁶ cm/s]: 59.4
--
GIVEN SMILES: CC(=O)c1cccc(N(CC(=O)Nc2ccccc2Nc2ccccc2)S(C)(=O)=O)c1
Papp [×10⁻⁶ cm/s]: 47.2
--
GIVEN SMILES: CC(=O)c1cccc(N(CC(=O)Nc2ccccc2-c2ccccc2)S(C)(=O)=O)c1
Papp [×10⁻⁶ cm/s]: 76.6
--
GIVEN SMILES: COc1ccc(Cl)cc1N(CC(=O)Nc1ccccc1Sc1ccccc1)S(C)(=O)=O
Papp [×10⁻⁶ cm/s]: 49
